Where these numbers come from: patent US20060099648A1

Biological target: Human IgG (Calbiochem; San Diego Calif.) (human)
Test: IgG displaced from peptide pin; competitor MSP1-19
Kindly supply the reported ΔF (%) values for the records listed here.

Value of ΔF (%) reported for the binder DEREE [Peptide# 23] is < 5%

ΔF (%) recorded for this binder, NPTCN [Peptide# 46] , is < 5%

In plain terms, VENPN [Peptide# 42] has a documented ΔF (%) of < 5%

Query LFDGI [Peptide# 86] yields ΔF (%) of 11%

The recorded ΔF (%) for entry ADAKC [Peptide# 58] equals < 5%

Measured ΔF (%), EGDKC [Peptide# 37] : < 5%

Lab note: measured ΔF (%) of TCNEN [Peptide# 48] was < 5%

Value of measured ΔF (%) for the entry CNENN [Peptide# 49] : 16%

Quick note, ΔF (%) for CECTK [Peptide# 76] landed at < 5%

Record summary for PQNSG [Peptide# 13] : reported ΔF (%) = < 5%

The recorded ΔF (%) for GIFCS [Peptide# 89] is 11%

Per the record, NPNPT [Peptide# 44] has ΔF (%) of < 5%

Lab note: NGKKI [Peptide# 70] gave ΔF (%) of 12%

The reported ΔF (%) of the binder NISQH [Peptide# 1] was < 5%

// ΔF (%) lookup, binder = TEEDS [Peptide# 63] , result: < 5%

# ΔF (%) of DKCVE [Peptide# 39] = < 5%

Noted for SNGKK [Peptide# 69] : its ΔF (%) reads < 5%
